Data origin: ChEMBL document CHEMBL3433997

Target: Glucose transporter (Leishmania mexicana)
Experiment: ST_JUDE_LEISH: Cytotoxicity at 2uM final concentration against transgenic Leishmania Mexicana promastigotes LmGT2 that are glucose transport deficient and complemented with the L. Mexicana glucose transporter 2. Activity is measured by DNA content using SYBR green in vitro
Assay type: functional
# inhibition per entry
QUANTITY_MEASURED: inhibition (%)

>>> reported("COc1cccc(CC(=O)NC2CCN(c3ccnc4cc(Cl)ccc34)C2)c1 (centres undefined)")
1.48
>>> reported("Fc1ccc2[nH]c(-c3ccc(-c4ccc(CNCCc5cccnc5)cc4)s3)nc2c1")
3.21
>>> reported("Cc1ccc(O)c(C(=O)c2cnc3c(c2)c(-c2ccc(F)cc2)c(C#N)c(=O)n3C)c1")
1.51
>>> reported("Cc1ccc2[nH]c(-c3ccc(C=CC(=O)NC4CCN(Cc5ccccc5)CC4)cc3)nc2c1")
5.84
>>> reported("NC(=O)c1cccc(C(=O)Nc2cccc(-c3cccc(-c4nc5ccccc5[nH]4)c3)c2)c1")
4.03
>>> reported("N#Cc1cccc(NC(=O)Nc2ccc(CC(=O)N3CCc4cc(Cl)c(N5CCN(C/C=C/c6ccccc6)CC5)cc43)cc2)c1")
2.7
>>> reported("N#Cc1ccc(CN2CCC(Oc3ccc(NC(=O)c4ccco4)cc3Cl)C2)cc1 (centres undefined)")
-0.68
>>> reported("Cc1cc(N[C@@H](CC(C)C)C(=O)NCc2cccs2)nc(NCCc2cccs2)n1")
3.84
>>> reported("Cc1ccc(-c2nnc(Nc3ccc(CC(N)=O)cc3)c3ccccc23)cc1S(=O)(=O)NCC1CCCO1 (centres undefined)")
2.36

----------
Each entry below carries its recorded inhibition.
Target: Glucose transporter (Leishmania mexicana) (UniProt O61059)
Assay: ST_JUDE_LEISH: Cytotoxicity at 2uM final concentration against transgenic Leishmania Mexicana promastigotes LmGT2 that are glucose transport deficient and complemented with the L. Mexicana glucose transporter 2. Activity is measured by DNA content using SYBR green in vitro
Format: functional
QUANTITY_MEASURED: inhibition (%)

>>> reported("CC(C)Nc1ccc(Nc2ccnc3cc4ccccc4cc23)cc1")
0.5
>>> reported("Cc1cn(CC(=O)Nc2cccc(-c3cccc(-c4nc5cc(C(F)(F)F)ccc5[nH]4)c3)c2)c(=O)[nH]c1=O")
4.55
>>> reported("CCN(CC)CCCC(C)Nc1ccnc2cc(Cl)ccc12 (stereo not given)")
1.51
>>> reported("CC(C)COc1ccc(Cl)cc1Cc1ccc(-c2nc3cc(CCN4CCCC4)ccc3[nH]2)o1")
2.08
>>> reported("CC1(C)NC(N)=NC(=N)N1OCCCNC(=O)c1ccc(C(=O)NCCCON2C(=N)N=C(N)NC2(C)C)cc1")
1.51

----------
Target: Hexose transporter 1 (Plasmodium falciparum)
Experiment: ST_JUDE_LEISH: Cytotoxicity at 2uM final concentration against transgenic Leishmania Mexicana promastigotes LmPfHT that are glucose transport deficient and complemented with the Plasmodium falciparum hexose transporter. Activity is measured by DNA content using SYBR green in vitro
Format: functional
QUANTITY_MEASURED: inhibition (%)

>>> reported("FC(F)(F)c1ccc2[nH]ccc(=NN=Cc3ccccc3Cl)c2c1")
1.66
>>> reported("CC(C)CNCc1cccc(-c2cccc(CN(CCCN3CCN(C)CC3)C(=O)Nc3ccccc3)c2)c1")
-1.73
>>> reported("CCOc1ccc(C(=O)Nc2ccc(-c3nc4ccccc4[nH]3)cc2)cc1[N+](=O)[O-]")
2.52
>>> reported("COc1cc(NCCCNCc2cn(Cc3cc(Br)cc(Br)c3)c3ccccc23)nc2ccccc12")
1.54
>>> reported("CCN(CCNC(=O)C1CCN(c2cc(-c3cccc(C)c3)ncn2)CC1)Cc1ccccc1")
3.37
>>> reported("O=C(NCCN1CCCC1)c1ccc(-c2ccc(-c3nc4ccccc4[nH]3)s2)cc1")
-1.55
>>> reported("O=c1[nH]ccc2nc(N[C@@H]3CCNC3)nc(Nc3cccc(S(=O)(=O)N4CCOCC4)c3)c12")
3.93
>>> reported("Cc1cc(N)c2cc(NC(=O)/C=C/c3ccccc3Cl)ccc2n1")
0.57
>>> reported("CCn1c(SCC(=O)Nc2cc(C(F)(F)F)ccc2Cl)nc2ccccc2c1=O")
3.62
>>> reported("O=c1cc(NCCCNCc2cc(C(F)(F)F)ccc2Cl)[nH]c2ccccc12")
0.29

----------
Target: Glucose transporter (Leishmania mexicana) (UniProt O61059)
Assay: ST_JUDE_LEISH: Cytotoxicity at 2uM final concentration against transgenic Leishmania Mexicana promastigotes LmGT2 that are glucose transport deficient and complemented with the L. Mexicana glucose transporter 2. Activity is measured by DNA content using SYBR green in vitro
Format: functional
QUANTITY_MEASURED: inhibition (%)

>>> reported("CC(C)c1ccc(N2CCN(CCCCNC(=O)c3ccc(NC(=O)c4cc(Cl)cc(Cl)c4)cc3)CC2)cc1")
1.9
>>> reported("Cc1ccc(-c2ccn(Cc3cccc(OCc4ccccc4)c3)n2)cn1.Cc1ccc(-c2ccnn2Cc2cccc(OCc3ccccc3)c2)cn1")
-0.57
>>> reported("Cc1cnc(CN(Cc2ccc(-c3ccc(CNCCc4ccc(S(C)(=O)=O)cc4)cn3)cc2)C(=O)c2nn(-c3ccccc3)nc2C)cn1")
4.81
>>> reported("CN1CCCC1CNS(=O)(=O)c1ccc(C(=O)NCC2CC2)cc1 (stereo not drawn)")
1.36
>>> reported("Nc1nc(Cc2ccc(Cl)cc2)nc(Cc2ccc(Cl)cc2)n1")
5.85
>>> reported("COc1ccccc1CNc1ncc(-c2ccsc2)c(-c2nccs2)n1")
-0.05
>>> reported("CC(C)(C)c1ccc(CNC(=O)c2ccc(-c3nc4cc(C(C)(C)C)ccc4[nH]3)cc2)cc1")
1.77
>>> reported("CCN(CC)CCN(Cc1ccc(-c2ccc(C(F)(F)F)cc2)cc1)C(=O)Cn1c(CCc2cccc(F)c2F)nc(=O)c2cc(C)ccc21")
7.16

----------
Biological target: Glucose transporter (Leishmania mexicana)
Experiment: ST_JUDE_LEISH: Cytotoxicity at 2uM final concentration against transgenic Leishmania Mexicana promastigotes LmGT2 that are glucose transport deficient and complemented with the L. Mexicana glucose transporter 2. Activity is measured by DNA content using SYBR green in vitro
Format: functional
QUANTITY_MEASURED: inhibition (%)

>>> reported("Cc1ccc(S(=O)(=O)n2cc(-c3ccnc(N)c3)c3cc(Br)cnc32)cc1")
1.4
>>> reported("O=c1cc(NCCCNC(CNCCc2ccccc2)c2cc(Br)cc(Br)c2)[nH]c2ccccc12 (stereo not given)")
2.67
>>> reported("COc1ccc2c(c1)Sc1ccccc1C(N1CCN(CCO)CC1)C2 (stereo not given)")
2.69
>>> reported("CC(C)CCn1c(Sc2ccc(C#N)c([N+](=O)[O-])c2)nnc1-c1ccccc1Cl")
1.46
>>> reported("COc1ccc(CNC(=O)c2cnc3cc(-c4c(C)noc4C)ccc3c2Nc2ccccc2C(C)(C)C)cc1")
1.52

----------
This section presents compounds with their documented inhibition values.
Biological target: Glucose transporter (Leishmania mexicana)
Experiment: ST_JUDE_LEISH: Cytotoxicity at 2uM final concentration against transgenic Leishmania Mexicana promastigotes LmGT2 that are glucose transport deficient and complemented with the L. Mexicana glucose transporter 2. Activity is measured by DNA content using SYBR green in vitro
Assay type: functional
QUANTITY_MEASURED: inhibition

>>> reported("CCOCCCNc1nc2cc(OC)c(OC)cc2c2nc(-c3ccccc3)nn12")
"-2.64%"
>>> reported("Cc1cc(NCCc2ccccc2)nc(NC(=N)Nc2cccc([N+](=O)[O-])c2)n1")
"5.24%"
>>> reported("Cc1cc(NC(=O)c2cc(S(=O)(=O)N3CCCCC3)ccc2C)no1")
"2.15%"
>>> reported("COc1cc(NC(=O)c2ccc3c(=O)n(Cc4ccccc4)c(=S)[nH]c3c2)cc(OC)c1OC")
"7.73%"
>>> reported("CS(=O)(=O)c1ccc2c(c1)CCN(CCC1CCC(NC(=O)C(=Cc3ccc(Cl)cc3Cl)c3ccc(-c4ccccc4)cc3)CC1)CC2 (centres undefined)")
"3.51%"
>>> reported("CCC(C)(C)c1ccc(OCC(O)CN2CCCCC2)c(C(C)(C)CC)c1 (centres undefined)")
"13.2%"
>>> reported("CS(=O)(=O)CCNCc1ccc(-c2ccc3c(Nc4ccc(Oc5ccccn5)cc4)ccnc3c2)o1")
"2.55%"
>>> reported("Cc1cc(N[C@@H](Cc2ccccc2)C(=O)Nc2ccccc2)nc(Nc2ccccc2)n1")
"-0.05%"
>>> reported("OC(c1ccccc1)C1CN(Cc2ccccc2)CCC1(O)c1ccccc1 (centres undefined)")
"7%"

----------
Target: Solute carrier family 2, facilitated glucose transporter member 1 (Homo sapiens) (UniProt P11166)
Sequence (P11166 whole entry): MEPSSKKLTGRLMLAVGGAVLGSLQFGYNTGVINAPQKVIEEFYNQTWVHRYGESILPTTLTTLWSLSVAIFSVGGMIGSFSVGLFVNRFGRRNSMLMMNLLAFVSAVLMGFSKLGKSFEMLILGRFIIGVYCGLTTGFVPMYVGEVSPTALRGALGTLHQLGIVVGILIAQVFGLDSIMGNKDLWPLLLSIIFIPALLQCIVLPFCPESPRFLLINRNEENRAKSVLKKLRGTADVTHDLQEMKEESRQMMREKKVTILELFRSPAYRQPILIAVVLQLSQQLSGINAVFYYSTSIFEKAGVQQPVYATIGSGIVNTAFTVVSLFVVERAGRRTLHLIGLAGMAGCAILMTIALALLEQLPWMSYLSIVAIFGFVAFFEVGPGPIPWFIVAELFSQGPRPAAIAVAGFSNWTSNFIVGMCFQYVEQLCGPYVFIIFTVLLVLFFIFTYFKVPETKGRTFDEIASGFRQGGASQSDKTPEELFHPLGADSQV
Experiment: ST_JUDE_LEISH: Cytotoxicity at 2uM final concentration against transgenic Leishmania Mexicana promastigotes LmGLUT1 that are glucose transport deficient and complemented with the human glucose transporter GLUT1. Activity is measured by DNA content using SYBR green in vitro
Assay type: functional
inhibition values, listed per item
QUANTITY_MEASURED: inhibition (%)

>>> reported("CCCc1cc(C)ccc1OCCCON1C(N)=NC(N)=NC1(C)C")
31.1
>>> reported("COc1ccc2nccc(N3CCC(SCCNCc4ccc5c(n4)NC(=O)CS5)C3)c2n1 (centres undefined)")
-1.38
>>> reported("CS(=O)(=O)c1ccc2c(c1)CCN(CCC1CCC(NC(=O)C(=Cc3ccc(Cl)cc3Cl)c3ccc(-c4ccccc4)cc3)CC1)CC2 (centres undefined)")
-0.33
>>> reported("O=C(/C=C/c1ccc(Cl)cc1)NCCCCCN1CCC(c2c[nH]c3ccccc23)CC1")
3.62
>>> reported("CN1c2ccc([N+](=O)[O-])cc2C(C)(C)C12C=Cc1cc(Br)cc([N+](=O)[O-])c1O2 (centres undefined)")
2.03
>>> reported("CC1CCCCN1CCCNc1ncc2c(-c3ccc(NC(=O)Nc4cc(C(F)(F)F)ccc4F)c(F)c3)nn(C)c2n1 (centres undefined)")
1.38
>>> reported("N#CCc1ccc(Nc2nccc(Nc3ccc(Oc4ccccc4)cc3)n2)cc1")
13.8
>>> reported("COc1ccc(NC(=O)Nc2cccc(-c3cccc(-c4nc5cccc(C)c5[nH]4)c3)c2)cc1")
-1.25
>>> reported("CN(C)CCOc1ccc(N2CCN(CCCCNC(=O)c3ccc(NC(=O)c4ccc(Cl)cc4)cc3)CC2)cc1")
0.54
>>> reported("C=CCOC(=O)N1CCC(CNCc2ccc(-c3ccc(-c4nc5cc(C(F)(F)F)ccc5[nH]4)cc3)cc2)C1 (centres undefined)")
3.5
>>> reported("CCN(CC)CCN(Cc1ccc(-c2ccc(C(F)(F)F)cc2)nc1)C(=O)Cn1c(SCc2ccc(F)cc2)nc(=O)c2sccc21")
1.92
>>> reported("Cc1ccc(Nc2nc3cc(N(C)c4ccnc(Nc5cccc(CS(C)(=O)=O)c5)n4)ccc3o2)cc1")
5.07
>>> reported("CCOC(=O)N1NC(=O)N(c2ccccc2)C1(c1ccccc1)c1ccccc1")
2.45
>>> reported("Cc1cc(-c2ccc(O)c(CNC3CCCCC3)c2)cnc1N")
0.43
>>> reported("CCCOc1cccc(C(=O)N[C@@H](Cc2ccccc2)[C@H](O)CNCc2ccccc2OC)c1")
3.73
>>> reported("O=c1ccc(-c2nc3cc(Cl)c(Cl)cc3n2Cc2ccc(Cl)cc2Cl)c[nH]1")
-0.54
>>> reported("Cc1nc(-c2cccc3c(NC(=O)N4CCc5cc6nccc(N7CCN(C)CC7)c6cc54)cccc23)no1")
1.15
>>> reported("CCCCn1c(-c2ccco2)nc2c(c(=O)c3ccccc3n2C)c1=O")
8.79
>>> reported("COc1cc2nccc(Nc3cc(C)cc(O)c3)c2cc1OC")
2.64
